Provenance of the data: ChEMBL document CHEMBL1201861

tested on: LU-134-A; assay: cells; assay type: functional, cell-based; details: Homo sapiens
Description: SANGER: Inhibition of human LU-134-A cell growth in a cell viability assay.
# key: entry, value: IC50

COMPOUND | TARGET | IC50
CN(Cc1cnc2nc(N)nc(N)c2n1)c1ccc(C(=O)N[C@@H](CCC(=O)O)C(=O)O)cc1 [METHOTREXATE] | LU-134-A | 0.0887 µM
CCOc1nc(NC(=O)Cc2cc(OC)ccc2OC)cc(N)c1C#N | LU-134-A | > 10 µM
Cc1cc([C@@H](C)Nc2ccccc2C(=O)O)c2nc(N3CCOCC3)cc(=O)n2c1 | LU-134-A | > 5.12 µM

---

test system: HD-MY-Z; assay: cells; type: functional, cell-based, Homo sapiens; conditions: Homo sapiens, HD-MY-Z;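 further: growth inhibition of HD-MY-Z cells, read out with a cell viability assay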
Description: SANGER: Inhibition of human HD-MY-Z cell growth in a cell viability assay.
# key: entry, value: IC50
ENDPOINT NAME: IC50 (µM)

COMPOUND | TARGET | ENDPOINT NAME | VALUE UNITS | LIMIT QUALIFIER | ENDPOINT RESULT
CN(C)C/C=C/C(=O)Nc1cc2c(Nc3ccc(F)c(Cl)c3)ncnc2cc1O[C@H]1CCOC1 [AFATINIB] | HD-MY-Z | IC50 | µM | > | 0.5
Nc1ccn([C@@H]2O[C@H](CO)[C@@H](O)[C@@H]2O)c(=O)n1 [CYTARABINE] | HD-MY-Z | IC50 | µM | = | 0.745
Cc1cc(Nc2cc(N3CCN(C)CC3)nc(Sc3ccc(NC(=O)C4CC4)cc3)n2)n[nH]1 [TOZASERTIB] | HD-MY-Z | IC50 | µM | > | 2
CCOc1nc(NC(=O)Cc2cc(OC)ccc2OC)cc(N)c1C#N | HD-MY-Z | IC50 | µM | > | 10
CCC1=C[C@@H]2CN(C1)Cc1c([nH]c3ccccc13)[C@@](C(=O)OC)(c1cc3c(cc1OC)N(C)[C@H]1[C@@](O)(C(=O)OC)[C@H](OC(C)=O)[C@]4(CC)C=CCN5CC[C@]31[C@@H]54)C2 [VINORELBINE] | HD-MY-Z | IC50 | µM | = | 0.0292
Cc1ccc(Nc2nccc(N(C)c3ccc4c(C)n(C)nc4c3)n2)cc1S(N)(=O)=O [PAZOPANIB] | HD-MY-Z | IC50 | µM | > | 8
C=C1C(=O)O[C@@H]2C3O[C@]3(C)CC/C=C(\C)CC[C@@H]12 (stereo not given in full) | HD-MY-Z | IC50 | µM | > | 5
CN(c1ncccc1CNc1nc(Nc2ccc3c(c2)CC(=O)N3)ncc1C(F)(F)F)S(C)(=O)=O [PF-00562271] | HD-MY-Z | IC50 | µM | > | 2.56
CC(=O)O[C@@]12CO[C@@H]1C[C@H](O)[C@@]1(C)C(=O)[C@H](O)C3=C(C)[C@@H](OC(=O)[C@H](O)[C@@H](NC(=O)OC(C)(C)C)c4ccccc4)C[C@@](O)([C@@H](OC(=O)c4ccccc4)[C@H]21)C3(C)C [DOCETAXEL] | HD-MY-Z | IC50 | µM | = | 0.00141
COC(=O)CNC(=O)C(=O)OC | HD-MY-Z | IC50 | µM | = | 1480
